System name: human k-opioid receptor (kOR) (Homo sapiens)
pIC50: −log10 of the molar value.
Use T when the recorded pIC50 is no lower than 7; use F when it is lower.

{"Molecule": "O=C(c1c(-c2ccc(F)cc2)nn2ccccc12)N1CCC[C@H]1Cn1ccc(-c2ccccc2)n1 [Example 44]", "Discrete label": "F"}
{"Molecule": "O=C(c1c(-c2ccccc2F)nn2ccccc12)N1CCC[C@H]1Cn1cc(-c2ccccc2)cn1 [Example 69]", "Discrete label": "F"}
{"Molecule": "O=C(c1c(-c2ccc(F)cc2)nc2ccccn12)N1CCC[C@H]1Cn1ccc(-c2ccc(F)cc2)n1 [Example 61]", "Discrete label": "F"}
{"Molecule": "O=C(c1c(-c2ccccc2)nc2cc(C(F)(F)F)ccn12)N1CCC[C@H]1Cn1ccc(-c2ccc(F)cc2)n1 [Example 53]", "Discrete label": "T"}
{"Molecule": "O=C(c1nn2ccccc2c1-c1ccccc1)N1CCC[C@H]1Cn1cc(-c2ccc(F)cn2)cn1 [Example 112]", "Discrete label": "F"}

---

System name: human k-opioid receptor (kOR) (Homo sapiens, UniProt P41145)
Sequence (P41145 whole entry): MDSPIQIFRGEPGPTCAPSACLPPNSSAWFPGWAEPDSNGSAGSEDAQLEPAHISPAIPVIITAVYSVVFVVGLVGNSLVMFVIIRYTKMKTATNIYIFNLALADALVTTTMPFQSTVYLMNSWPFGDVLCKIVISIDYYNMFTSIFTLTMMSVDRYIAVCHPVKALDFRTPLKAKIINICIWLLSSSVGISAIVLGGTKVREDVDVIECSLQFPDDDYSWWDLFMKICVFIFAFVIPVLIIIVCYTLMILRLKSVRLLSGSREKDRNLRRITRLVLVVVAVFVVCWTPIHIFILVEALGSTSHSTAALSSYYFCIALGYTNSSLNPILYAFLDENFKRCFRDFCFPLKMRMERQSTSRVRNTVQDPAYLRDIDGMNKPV
pIC50: −log10 of the molar value.
Label YES for high-side pIC50 (at or above 6) and NO for low-side pIC50 (below it).

{"Structure notation": "O=C(c1c(-c2ccccc2F)nn2ccccc12)N1[C@H](Cn2ccc(-c3ccc(F)cc3)n2)C[C@@H]2C[C@@H]21", "Discrete label": "YES"}
{"Structure notation": "O=C(c1c(-c2ccccc2)nc2ccc(F)cn12)N1CCC[C@H]1Cn1ccc(-c2ccc(F)cc2)n1", "Discrete label": "YES"}
{"Structure notation": "O=C(c1c(-c2ccc(F)cc2)nn2ccccc12)N1CCC[C@H]1Cn1ccc(-c2ccc(F)cc2)n1", "Discrete label": "YES"}
{"Structure notation": "C[C@@H]1CCCN(C(=O)c2c(-c3ccccc3)nc3ccccn23)[C@@H]1CNc1ccc(C(F)(F)F)cn1", "Discrete label": "NO"}
{"Structure notation": "O=C(c1c(-c2ccc(F)cc2)nn2ccccc12)N1CCC[C@H]1Cn1ccc(-c2ccc(C(F)(F)F)cc2)n1", "Discrete label": "YES"}
{"Structure notation": "O=C(c1c(-c2ccccc2F)nc2ccccn12)N1CCC[C@H]1Cn1ccc(-c2ccc(F)cc2)n1", "Discrete label": "YES"}
{"Structure notation": "O=C(c1c(-c2ccccc2)nn2ccccc12)N1CCC[C@H]1COc1ccc(C(F)(F)F)cn1", "Discrete label": "NO"}
{"Structure notation": "O=C(c1c(-c2ccccc2)nc2ccc(F)cn12)N1[C@H](Cn2ccc(-c3ccc(F)cc3)n2)C[C@@H]2C[C@@H]21", "Discrete label": "YES"}
{"Structure notation": "O=C(c1c(-c2ccccc2)nc2cc(C(F)(F)F)ccn12)N1CCC[C@H]1Cn1cc(-c2ccccc2)cn1", "Discrete label": "YES"}
{"Structure notation": "O=C(c1c(-c2ccccc2)nn2ccccc12)N1CCC[C@H]1Cn1ccc(-c2ccc(C(F)(F)F)cc2)n1", "Discrete label": "YES"}
{"Structure notation": "O=C(c1c(-c2ccccc2F)nn2ccccc12)N1CCC[C@H]1Cn1ccc(-c2ccc(F)cc2)n1", "Discrete label": "NO"}
{"Structure notation": "O=C(c1c(-c2ccccc2)nn2c1COCC2)N1CCC[C@H]1Cn1ccc(-c2ccc(F)cc2)n1", "Discrete label": "YES"}
{"Structure notation": "O=C(c1c(-c2ccccc2)nn2ccccc12)N1CCC[C@H]1Cn1ccc(-c2ccc(F)cc2)n1", "Discrete label": "YES"}
{"Structure notation": "O=C(c1c(-c2ccccc2F)nn2c1COCC2)N1CCC[C@H]1Cn1ccc(-c2ccc(F)cc2)n1", "Discrete label": "YES"}
